Recorded MIC50 by entry
test system: Candida albicans; assay: Antifungal activity against Candida albicans C693 by broth dilution method; type: functional
Reply numerically in µg/mL, unit not repeated.

Some solved cases for reference:
>>> reported_result("CCCCCCCSc1c(N2CCN(S(=O)(=O)Cc3ccccc3)CC2)cnn(-c2ccccc2)c1=O")
3.1
>>> reported_result("C[C@@H]1CN(c2cnn(-c3ccccc3)c(=O)c2OC2CCCCC2)CCN1S(=O)(=O)Cc1ccccc1")
19
>>> reported_result("O=c1c(OC2CCCC2)c(N2CCN(S(=O)(=O)c3ccccc3)CC2)cnn1-c1ccccc1")
0.78
>>> reported_result("C[C@H]1CN(c2cnn(-c3ccccc3)c(=O)c2OC2CCCCC2)CCN1S(=O)(=O)Cc1ccccc1")
2

[ask] I'd like to know its MIC50. The compound in question is CC(C)S(=O)(=O)N1CCN(c2cnn(-c3ccccc3)c(=O)c2OC2CCCC2)CC1
[reply] 25
